- testDescription: qHTS for identification of novel therapeutic agents for treatment of microphthalmiaassociated transcription factor (MiT) renal cell carcinoma (RCC) (AID 1963991);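 note: curves scaled with 100% = DMSO viability and 0% = empty wells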
- reportedConditions: TFE3-RCC viability, CellTiter-Glo, 48 h; measured here: UOK145 Z-AUC; stronger effect = lower value
Records with an inconclusive call do not appear.
Can you tell me z-score for the items I'm about to list?
One number for each entry.

Check out these entries, answers already filled in.
{"columns": ["compound", "metric", "measuredResult"],
 "data": [
  ["NC(=O)Nc1cc(-c2cccc(F)c2)sc1C(=O)N[C@H]1CCCNC1", "z-score", -1.85],
  ["CCOc1ccccc1OCCNC(C)Cc1ccc(OC)c(S(N)(=O)=O)c1 (centres undefined)", "z-score", 2.03],
  ["COCCn1c2c([n+](Cc3cnccn3)c1C)C(=O)c1ccccc1C2=O", "z-score", -3.23],
  ["O=C(c1cncc(Br)c1)N1CCC(N2CCCC2)CC1", "z-score", 0.752],
  ["CC(C)c1nn(-c2c(Cl)cccc2Cl)c2nc(Cc3ccc(OCCO)cc3)[nH]c(=O)c12", "z-score", -2.67]
]}

I would be grateful if you could provide z-score for each of the following entries.
1. CS(=O)(=O)c1ccc(-c2cnc(N)c(C(=O)Nc3ccccc3)n2)cc1
2. COC(=O)[C@]12CCC(C)(C)C[C@@H]1[C@@H]1C(=O)C=C3[C@@]4(C)C=C(C#N)C(=O)C(C)(C)[C@@H]4CC[C@@]3(C)[C@]1(C)CC2
3. C=CC(=O)Nc1cccc(Oc2nc(Nc3ccc(N4CCN(C)CC4)cc3)ncc2Cl)c1
4. CC1COC2(CCN(c3nc(=O)c4cc(C(F)(F)F)cc([N+](=O)[O-])c4s3)CC2)O1 (centres undefined)

1. 0.761
2. -1.96
3. -2.36
4. 0.808

###

- Tested on: Zika virus NS2B-NS3 protease (unlinked complex)
- testDescription: Primary screen GU Rhodamine qHTS for Zika virus inhibitors: Unlinked NS2B-NS3 protease assay (AID 1347159); note: nearly all actives have a fitted effect of over 60% in size
- reportedConditions: Recombinant ZIKV NS2B-NS3 protease, Rhodamine110 substrate fluorescence; series mostly up to 107 µM
Records with an inconclusive call do not appear. The source made the active and inactive calls. Calls come from the whole dose curve; as a rule, active = well fitted inhibition curve with a large enough effect; inconclusive = small, poorly fitted or top-dose-only effect; inactive = no such curve, though single readings can be large or run the other way.
Response enum: active, inactive

Some entries whose results are on file:
{"columns": ["molecule", "classAssignment"],
 "data": [
  ["COc1ccc(F)c(F)c1C(=O)c1cnc(NC2CCN(S(C)(=O)=O)CC2)nc1N", "inactive"],
  ["O=C(O)CCCc1c[nH]c2ccccc12", "inactive"],
  ["CC(C)c1noc(N2CCC(COc3ccc(-c4ccc(S(C)(=O)=O)cc4)nc3)CC2)n1", "inactive"],
  ["C=CC(=O)Nc1cccc(Oc2nc(Nc3ccc(N4CCN(C)CC4)cc3OC)ncc2Cl)c1", "inactive"],
  ["Nc1nc(NCCNc2ncc(-n3ccnc3)c(-c3ccc(Cl)cc3Cl)n2)ccc1[N+](=O)[O-]", "inactive"],
  ["COc1ccc(-c2cc3c(C)nc(N)nc3n(C3CCC(OCCO)CC3)c2=O)cn1 (configuration not stated)", "inactive"],
  ["CC(=O)Nc1sc2c(c1-c1nc3ccccc3s1)CNC2", "inactive"],
  ["COC(=O)c1ccc2c(C(=Nc3ccc(N(C)C(=O)CN4CCN(C)CC4)cc3)c3ccccc3)c(O)[nH]c2c1", "inactive"]
]}

API: the following record is the query input.
Record lookup: outcome of this test for CN(C)c1nc(Cc2ccc(NC(=O)c3ccc4ccccc4c3)cc2)nc(Cl)c1CC(=O)O ?
active

###

- Tested on: WaGa
- testDescription: qHTS assay to identify novel small-molecules to repurpose for Merkel cell carcinoma treatment (AID 1296009); note: nearly all actives have a fitted effect of over 60% in size
- reportedConditions: MCC and control cell lines, CellTiter-Glo viability, 72 h; series mostly up to 46 µM
Records with an inconclusive call do not appear. Activity calls are given as the source filed them. Calls come from the whole dose curve; as a rule, active = well fitted inhibition curve with a large enough effect; inconclusive = small, poorly fitted or top-dose-only effect; inactive = flat fitted curve, though single readings scatter.
Response enum: 1 (yes) = active, 0 (no) = inactive

{"columns": ["itemSmiles", "classAssignment"],
 "data": [
  ["Cc1ccc(CN2CCNCC2)cc1NC(=O)CNc1ccc(F)c(F)c1", "0 (no)"],
  ["CC(=O)Nc1nc(C)c(-c2ccc(Cl)c(S(=O)(=O)NCCO)c2)s1", "1 (yes)"],
  ["CN(C)CC=CC(=O)Nc1cc2c(Nc3ccc(F)c(Cl)c3)ncnc2cc1O[C@H]1CCOC1", "1 (yes)"]
]}

API: the following record is the query input.
Record lookup: outcome of this test for COc1cc(OC2CCN(C)CC2)ccc1Nc1ncc2c(n1)n(C1CCCC1)c(=O)n2C ?
1 (yes)

###

- targetOrTestSystem: Luciferin 4-monooxygenase (Photinus pyralis)
- testDescription: Biochemical firefly luciferase enzyme assay for NPC (AID 624030); note: nearly all actives have a fitted effect of over 70% in size; note: potency is the fitted concentration of half-maximal effect
- reportedConditions: purified P. pyralis luciferase, luminescence, 5 min; series mostly up to 58.6 µM
- Experimental: Charcot-Marie-Tooth-Association [CMTA] National Center for Advancing Translational Sciences [NCATS] […] Compounds were transferred to the plates in 23nl, and one microliter/well luciferase enzyme-buffer solution (10 nM P. pyralis luciferase and 50 mM Tris Acetate final concentrations) was dispensed yielding a final reaction volume of […]. Luciferase luminescence was measured by a ViewLux plate reader within 5 minutes of enzyme-buffer addition. […]
Results filed as inconclusive are left out. Activity calls are given as the source filed them. The call rests on the fitted dose curve; in most records, active means well fitted inhibition curve with a large enough effect; inconclusive means small, poorly fitted or top-dose-only effect; inactive means flat fitted curve, though single readings scatter.
metric: Potency

Check out these entries, answers already filled in.
{"columns": ["compound", "Potency"],
 "data": [
  ["COc1c(N2C[C@@H]3CCCN[C@H]3C2)c(F)cc2c(=O)c(C(=O)O)cn(C3CC3)c12", "inactive"],
  ["Nc1ccn([C@@H]2CS[C@H](CO)O2)c(=O)n1", "inactive"],
  ["CN1c2cc(O)c(N=NC(N)=O)cc2CC1S(=O)(=O)O (stereo not given)", "inactive"],
  ["O=C(O)CO.[NH2-].[NH2-].[Pt+2]", "inactive"]
]}

Now examine the next entry.
What value of measured Potency is listed for COc1cc(C(=O)NS(=O)(=O)c2ccccc2C)ccc1Cc1cn(C)c2ccc(NC(=O)OC3CCCC3)cc12 ?
16.1 µM (active)

###

- testDescription: Quantitative High-Throughput drug screen in 47 multiple myeloma cell lines against the NCATS MIPE library collection: JIM3_ECACC cell viability assay (AID 1918963; note: potency is the fitted concentration of half-maximal effect; nearly all actives have a fitted effect of over 35% in size)
- reportedConditions: JIM3 myeloma viability, CellTiter-Glo ATP, 48 h; series mostly up to 45.8 µM
Inconclusive results are not listed. Activity calls are given as the source filed them. Calls come from the whole dose curve; as a rule, active = well fitted cell-killing curve with a large enough effect; inconclusive = small, poorly fitted or top-dose-only effect; inactive = no such curve, though single readings can be large or run the other way.
Response enum: active, inactive

Some entries whose results are on file:
{"columns": ["compound", "classAssignment"],
 "data": [
  ["COc1cccc2nc(-c3cccs3)nc(NN3C(=O)C=C(C)C3=O)c12", "active"],
  ["CC[C@@H]1C(=O)N(C)c2cnc(Nc3ccc(C(=O)NC4CCC(N5CCN(CC6CC6)CC5)CC4)cc3OC)nc2N1C(C)C (stereo not given in full)", "active"],
  ["C1=CCOCc2cc(ccc2OCCN2CCCC2)Nc2nccc(n2)-c2cccc(c2)OCC1", "active"]
]}

Record lookup: outcome of this test for CNC(=O)c1cc(Oc2ccc(NC(=O)Nc3cc(C(C)(C)C)nn3-c3ccc4ncccc4c3)c(F)c2)ccn1 ?
active

Record lookup: outcome of this test for CN1CCN(c2cc(C(=O)Nc3ccc4c(c3)-c3c(c(C(N)=O)nn3-c3ccc(F)cc3)CC4)c(Cl)cn2)CC1 ?
active

Record lookup: outcome of this test for COc1cc(OC2CCN(C)CC2)ccc1Nc1ncc2c(n1)n(C1CCCC1)c(=O)n2C ?
active

Record lookup: outcome of this test for COc1cc(C(=O)NS(=O)(=O)c2ccccc2C)ccc1Cc1cn(C)c2ccc(NC(=O)OC3CCCC3)cc12 ?
active

Record lookup: outcome of this test for CCn1cc(-c2ccnc3[nH]c(-c4cccc(CN(C)C)c4)cc23)c(-c2ccc(NC(=O)N(C)C)cc2)n1 ?
active

Record lookup: outcome of this test for CC(C)c1cc(-c2n[nH]c(=O)n2-c2ccc3c(ccn3C)c2)c(O)cc1O ?
active

Record lookup: outcome of this test for Nc1ncnc2c1c(-c1cccc(OCc3ccccc3)c1)cn2C1CC(CN2CCCC2)C1 (stereo not given) ?
active

Record lookup: outcome of this test for Nc1ccccc1NC(=O)c1ccc(CNc2nccc(-c3cccnc3)n2)cc1 ?
active

Record lookup: outcome of this test for CC(C)(C)OC(=O)Nc1ccc(-c2cc(C(=O)NCCCCCCC(=O)NO)no2)cc1 ?
active

Record lookup: outcome of this test for CN(C)CC=CC(=O)Nc1cc2c(Nc3ccc(F)c(Cl)c3)ncnc2cc1O[C@H]1CCOC1 ?
active

###

- testDescription: qHTS of pediatric cancer cell lines to identify multiple opportunities for drug repurposing: Primary screen for Saos-2 cells (AID 1347097); note: nearly all actives have a fitted effect of over 40% in size
- reportedConditions: Saos-2 viability, CellTiter-Glo ATP luminescence, 48 h; series mostly up to 46 µM
Results filed as inconclusive are left out. Active and inactive are the calls of the source. The call rests on the fitted dose curve; in most records, active means well fitted cell-killing curve with a large enough effect; inconclusive means small, poorly fitted or top-dose-only effect; inactive means no such curve, though single readings can be large or run the other way.
Response enum: yes for active, no for inactive

Some entries whose results are on file:
{"columns": ["itemSmiles", "classAssignment"],
 "data": [
  ["COc1cc(=C2C=c3ccccc3=N2)[nH]c1=Cc1[nH]c(C)cc1C", "yes"],
  ["Cc1cc(Nc2cc(NC(=O)c3c(Cl)cccc3Cl)ccn2)nc(N)n1", "yes"],
  ["COc1cccc(Nc2c(C(N)=O)cnc3c(C)cc(S(=O)(=O)c4cccc(C(=O)N(C)C)c4)cc23)c1", "no"],
  ["c1nc2nc(Nc3ccc(N4CCOCC4)cc3)nc(NC3CCCCC3)c2[nH]1", "yes"]
]}

Record lookup: outcome of this test for COc1cc(Nc2ncc(F)c(Nc3ccc4c(n3)N(COP(=O)(O)O)C(=O)C(C)(C)O4)n2)cc(OC)c1OC ?
yes
